Provenance of the data: patent US11339165B2

I'd be grateful if you could share measured melting point for these entries.
Answer format: numeric, °C implied, no suffix.

# melting point (molecule: C[C@@H]1c2ccccc2CCN1C(=O)c1cc(C2CC2)n2nc(-c3ccc(N4C[C@H](C(N)=O)C[C@H]4C)cc3F)cc2n1 (single isomer, unassigned) [Compound 32] ) is 297.57

# melting point (molecule: CNC(=O)C1CCN(c2ccc(-c3cc4nc(C(=O)N5CCc6ccccc6[C@H]5C)cc(C5CC5)n4n3)c(F)c2)CC1 [Compound 72] ) is 252.4

# melting point (molecule: C[C@@H]1c2ccccc2CCN1C(=O)c1cc(C2CC2)n2nc(-c3ccc(N4CC[C@H](C(N)=O)[C@@H]4C)cc3F)cc2n1 (single isomer, unassigned) [Compound 83] ) is 235.56

# melting point (molecule: C[C@@H]1c2ccccc2CCN1C(=O)c1cc(C2CC2)n2nc(-c3ccc(N4CC[C@@H](C(N)=O)[C@@H]4C)cc3F)cc2n1 (single isomer, unassigned) [Compound 82] ) is 294.89

# melting point (molecule: C[C@@H]1c2ccsc2CCN1C(=O)c1cc(C2CC2)n2nc(-c3ccc(N4CC[C@@H](CC(N)=O)C4)cc3F)cc2n1 (single isomer, unassigned) [Compound 43] ) is 214.36

# melting point (molecule: C[C@@H]1c2ccccc2CCN1C(=O)c1cc(C2CC2)n2nc(-c3ccc(N4CC[C@H](C(N)=O)C4)nc3F)cc2n1 [Compound 49] ) is 239.19

====

Assay: in vitro
Settings: human, TOX HELA CC50 (μM)
I'd be grateful if you could share measured CC50 at 3 days for these entries.
Answer format: numeric, µM implied, no suffix.

# CC50 at 3 days (compound: COc1cc(N2CC[C@H](C(N)=O)C2)nc(F)c1-c1cc2nc(C(=O)N3CCc4ccccc4[C@H]3C)cc(C3CC3)n2n1 [Compound 86] ) is 49.5

# CC50 at 3 days (compound: C[C@@H]1c2ccccc2CCN1C(=O)c1cc(C2CC2)n2nc(-c3ccc(N4C[C@H](C(N)=O)C[C@H]4C)cc3F)cc2n1 (single isomer, unassigned) [Compound 32] ) is 32.1

# CC50 at 3 days (compound: C[C@@H]1c2ccccc2CCN1C(=O)c1cc(C2CC2)n2nc(-c3ccc(N4C[C@@H](O)[C@@H](O)C4)cc3F)cc2n1 [Compound 95] ) is 31.1

====

I'd be grateful if you could share measured EC50 for these entries.
System: rgRSV224 virus
Test: Antiviral activity: rgRSV224 (GFP) replication in HeLa cells
Assay type: cell-based, respiratory syncytial virus (RSV)
Settings: human respiratory syncytial virus, HeLa, 72 h, read-out: RSV HELA EC50 (μM), rgRSV224 virus (MOI=1), HeLa cells, GFP expression three days post-virus exposure
Write the quantity with the unit trailing the number.

# EC50 (molecule: C[C@@H]1c2ccccc2CCN1C(=O)c1cc(C2CC2)n2nc(-c3ccc(N4CC[C@H](C(N)=O)[C@H]4C)cc3F)cc2n1 (single isomer, unassigned) ) is 0.099 µM

# EC50 (molecule: C[C@@H]1c2ccsc2CCN1C(=O)c1cc(C2CC2)n2nc(-c3ccc(N4CC[C@](C)(CC(N)=O)C4)cc3F)cc2n1 (single isomer, unassigned) ) is 0.023 µM

# EC50 (molecule: C[C@@H]1c2ccccc2CCN1C(=O)c1cc(-c2ccccc2)n2nc(-c3ccc(N4CC[C@H](C(N)=O)C4)cc3F)cc2n1 ) is 0.032 µM
